Target Of Assay: UniProt O14757
Sequence (O14757 whole entry): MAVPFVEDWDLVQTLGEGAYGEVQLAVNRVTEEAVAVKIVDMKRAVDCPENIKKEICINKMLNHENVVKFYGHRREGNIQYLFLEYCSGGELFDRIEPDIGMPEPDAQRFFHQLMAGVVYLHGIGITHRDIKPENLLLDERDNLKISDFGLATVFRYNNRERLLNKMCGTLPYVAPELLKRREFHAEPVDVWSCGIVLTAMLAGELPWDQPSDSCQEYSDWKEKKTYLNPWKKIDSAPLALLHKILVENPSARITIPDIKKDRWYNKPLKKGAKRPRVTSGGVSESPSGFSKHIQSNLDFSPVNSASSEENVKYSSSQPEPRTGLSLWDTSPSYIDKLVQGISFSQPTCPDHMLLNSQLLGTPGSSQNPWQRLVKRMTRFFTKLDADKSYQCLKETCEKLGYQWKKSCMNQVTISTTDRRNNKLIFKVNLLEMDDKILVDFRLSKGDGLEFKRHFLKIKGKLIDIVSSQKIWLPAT
Test Description: CHK-1 % inhibition kinase assay (TR-FRET)
Assay type: biochemical
Condition Notes: CHK1 enzyme, compound 30 nM, ATP 15 μM
Reported values of inhibition at 0.03 µM for individual entries
Property Measured: inhibition at 0.03 µM

# Molecule, Property Measured, Readout Value
records = [
    ("COc1cc(C2=CCNCC2)ccc1-c1cc(Nc2cnc(C#N)cn2)no1 [Compound 1.19]", "inhibition at 0.03 µM", "15.1%"),
    ("N#Cc1cnc(Nc2cc(-c3ccccc3OCCCCN)on2)cn1 [Compound 1.6]", "inhibition at 0.03 µM", "71%"),
    ("N#Cc1cnc(Nc2cc(-c3ccccc3OC3CNC3)on2)cn1 [Compound 1.4]", "inhibition at 0.03 µM", "7%"),
]

###

Test Description: Microsomal stability assay, rat liver microsome
Format: in vitro ADME
Condition Notes: liver microsomes, pH 7.4, 0.2 mg/mL, 1 μM compound, 37° C., read-out: Clint RLM
Binary call on microsomal CLint at 1 μM: Satisfied from 50 µL/min/mg upward, Not satisfied beneath that.

# Compound, Class Name
rows = [
    ("N#Cc1cnc(Nc2cc(-c3cc4ccccc4cc3OCC3CCCNC3)[nH]n2)cn1 (stereo not shown)", "Satisfied"),
    ("N#Cc1cnc(Nc2cc(-c3cc4ccccc4cc3OCC3CCNCC3)[nH]n2)cn1", "Not satisfied"),
    ("N#Cc1cnc(Nc2cc(-c3ccccc3OCC3CNCCO3)on2)cn1 (stereo not shown)", "Satisfied"),
    ("N#Cc1cnc(Nc2cc(-c3ccccc3O[C@H]3CC[C@@H](N)CC3)on2)cn1", "Not satisfied"),
    ("COc1cc(C2=CCNCC2)ccc1-c1cc(Nc2cnc(C#N)cn2)on1", "Satisfied"),
]

###

Reported values of solubility kinetic at 1 h for individual entries
Test Description: Kinetic solubility assay (nephelometry)
Condition Notes: PBS, 37 °C, pH 7.4, aqueous buffer, kinetic from dmso stock
Property Measured: solubility kinetic at 1 h

# Molecule, Property Measured, Readout Value
records = [
    ("N#Cc1cnc(Nc2cc(-c3ccccc3OCC3CNC3)on2)cn1", "solubility kinetic at 1 h", "48 µM"),
    ("N#Cc1cnc(Nc2cc(-c3cc4ccccc4cc3OCC3CNC3)[nH]n2)cn1", "solubility kinetic at 1 h", "41.8 µM"),
    ("N#Cc1cnc(Nc2cc(-c3ccccc3OCC3CCNC3)on2)cn1 (stereo not drawn)", "solubility kinetic at 1 h", "46.6 µM"),
    ("N#Cc1cnc(Nc2cc(-c3ccccc3OC3CCNC3)on2)cn1 (stereo not drawn)", "solubility kinetic at 1 h", "39.6 µM"),
    ("N#Cc1cnc(Nc2cc(-c3cc4ccccc4cc3OCC3CCNC3)[nH]n2)cn1 (stereo not drawn)", "solubility kinetic at 1 h", "7.77 µM"),
    ("CC(C)CC(C)N1CC(Oc2ccccc2-c2cc(Nc3cnc(C#N)cn3)no2)C1 (stereo not drawn)", "solubility kinetic at 1 h", "38.4 µM"),
    ("COc1ccccc1-c1cc(Nc2cnc(C#N)cn2)no1", "solubility kinetic at 1 h", "14 µM"),
    ("N#Cc1cnc(Nc2cc(-c3ccccc3OCC3CCNCC3)on2)cn1", "solubility kinetic at 1 h", "45.6 µM"),
    ("CN1CCOC(COc2ccccc2-c2cc(Nc3cnc(C#N)cn3)no2)C1 (stereo not drawn)", "solubility kinetic at 1 h", "32 µM"),
]
